The reported numbers originate from patent US20260152501A1.

# IC50 per entry
Tested on: H82 cells
Assay: Cell proliferation experiment, H82 cells
Type: cell-based
Conditions: Homo sapiens, NCI-H82, cultured for 72 hours, Cell Titer-Glo, read-out: Cell antiproliferation data H82
Outcome Measure: IC50

- Substance Smiles: "CC(C)n1cnc2c(NCc3ccc(-c4ccccc4)cc3)nc(N3CCC[C@H](N)C3)nc21"
  Outcome Measure: "IC50"
  Reported Result: "≤ 100 nM"
- Substance Smiles: "CC(C)n1cnc2c(NCc3ccc(-c4ccccc4)cc3)nc(N3CCC[C@@H](N)C3)nc21"
  Outcome Measure: "IC50"
  Reported Result: "≤ 100 nM"
- Substance Smiles: "CC(C)n1cnc2c(NCc3ccc(-c4ccccc4)cc3)nc(N[C@H]3CCCNC3)nc21"
  Outcome Measure: "IC50"
  Reported Result: "≤ 100 nM"
- Substance Smiles: "CCn1cnc2c(NCc3ccc(-c4cccc(CO)n4)cc3)nc(N3CCOCC3)nc21"
  Outcome Measure: "IC50"
  Reported Result: "100 to 300 nM"
- Substance Smiles: "CCn1cnc2c(NCc3ccc(-c4cccc(CO)n4)cc3)nc(N3CCNCC3)nc21"
  Outcome Measure: "IC50"
  Reported Result: "100 to 300 nM"
- Substance Smiles: "CC(C)n1cnc2c(NCc3ccc(-c4ccccc4)cc3)nc(N3CCNCC3)nc21"
  Outcome Measure: "IC50"
  Reported Result: "≤ 100 nM"
- Substance Smiles: "CC(C)n1cnc2c(NCc3ccc(-c4ccccc4)cc3)nc(N3CCN(C)CC3)nc21"
  Outcome Measure: "IC50"
  Reported Result: "100 to 300 nM"
- Substance Smiles: "CC(C)n1cnc2c(NCc3ccc(-c4ccccc4)cc3)nc(N3CCOCC3)nc21"
  Outcome Measure: "IC50"
  Reported Result: "> 300 nM"
- Substance Smiles: "CCn1cnc2c(NCc3ccc(-c4cccc(CO)c4)cc3)nc(N3CCNCC3)nc21"
  Outcome Measure: "IC50"
  Reported Result: "≤ 100 nM"
